# Test system: U-251
# assayComment: NCI tumour cell line growth inhibition, 48 h
The source made the active and inactive calls. Cut-off read from the data, not from the text of the source: active = GI50 up to about 1.1 µM and inactive = higher.
Respond with a class label; see 1 (yes) (active), 0 (no) (inactive)

{"compound": "O=C1OC(OC/C(Br)=C(/Br)COC2OC(=O)C(Cl)=C2Cl)C(Cl)=C1Cl (configuration not stated)", "cat": "0 (no)"}
{"compound": "CCCCCCCCOCC(O)COC (configuration not stated)", "cat": "0 (no)"}
{"compound": "CC(C)SC1SCC2C(=O)N(C)C3(CC3C)C(=O)OCC(NC(=O)c3nc4ccccc4cc3O)C(=O)NC(C)C(=O)N(C)C1C(=O)N(C)C1(CC1C)C(=O)OCC(NC(=O)c1nc3ccccc3cc1O)C(=O)NC(C)C(=O)N2C (configuration not stated)", "cat": "1 (yes)"}
{"compound": "N#CCN1C(=O)c2cc([N+](=O)[O-])cc3cc([N+](=O)[O-])cc(c23)C1=O", "cat": "0 (no)"}
{"compound": "CCOP(=O)(OCC)[C@H](O)c1ccsc1", "cat": "0 (no)"}
{"compound": "CC1=NN(C(=O)Cc2ccccc2)C(=O)/C1=C\\c1ccc([N+](=O)[O-])cc1", "cat": "0 (no)"}

Proceed to the following item.
Task: # fetch the recorded call for Cc1cccc(N2C(=O)C(=O)C(c3nc4ccccc4s3)C(=O)C2=O)c1C here
Result: 0 (no)

----------
# System: U-251
# assayComment: NCI tumour cell line growth inhibition, 48 h
Active and inactive are the calls of the source. No stated cut-off is given here; in the data, active = GI50 up to about 1.1 µM and inactive = higher.
Respond with a class label; see T = active, F = inactive

Answered cases to consult:
{"molecule": "O=C(N/N=C/c1ccccc1)c1cccc2nc3ccccc3nc12", "cat": "F"}
{"molecule": "CCC12CC[C@H](C#N)N3CCc4c(n(c5ccccc45)C(=O)C1)C32 (stereo not given in full)", "cat": "F"}
{"molecule": "Cc1c(CN2CCOCC2)c(CN2CCOCC2)c(C)n1-c1ccc(Cl)cn1", "cat": "F"}
{"molecule": "O=S(=O)(N1CCCCN(S(=O)(=O)C(F)(F)F)CCCN(S(=O)(=O)C(F)(F)F)CCCCN(S(=O)(=O)C(F)(F)F)CCCN(S(=O)(=O)C(F)(F)F)CCCCN(S(=O)(=O)C(F)(F)F)CCCN(S(=O)(=O)C(F)(F)F)CCCCN(S(=O)(=O)C(F)(F)F)CCC1)C(F)(F)F", "cat": "F"}
{"molecule": "CCOC(=O)c1[nH]c(Br)c(-c2ccc(Br)cc2)c1Br", "cat": "T"}
{"molecule": "N=C1NC(=O)N2CC12 (stereo not given) [IMEXON]", "cat": "F"}
{"molecule": "S=C(NC/C(Br)=C/Br)Nc1cccc2ccccc12", "cat": "F"}
{"molecule": "CC1(C)CC[C@]2(C(=O)O)CC[C@]3(C)C(=CC[C@@H]4[C@@]5(C)CC[C@H](OC6OC(C(=O)O)C(O)C(O)C6O)C(C)(C)[C@@H]5CC[C@]43C)[C@@H]2C1 (stereo not given in full)", "cat": "F"}
{"molecule": "CC1(/C=C/CCSc2ccccc2)CC(=O)C2CC1C2(C)C (stereo not given)", "cat": "F"}

Proceed to the following item.
Task: # fetch the recorded call for Nc1nc(-c2cc(-c3cccc4ccccc34)nc(N)n2)cc(-c2cccc3ccccc23)n1 here
Result: F

----------
# Test system: SF-539
# assayComment: NCI tumour cell line growth inhibition, 48 h
The source made the active and inactive calls. Rule as the data show it: active = GI50 up to about 1.1 µM and inactive = higher. *1 amine or outer side, *2 acyl side, *3 side chain or, on linkers, in order; H or OH if unused. Where a SMILES comes first, the peptide text is derived from it. [ ]: non-standard residue; d: D form. The star is where a group is joined. X31 = CC(=O)N(C)SCC(N[*:1])C(=O)[*:2]; Fmoc = O=C(OCC1c2ccccc2-c2ccccc21)*; For = O=C*
readoutName: GI50

Recorded results for 5 molecules are shown here.
{"molecule": "O=c1cccc(Cl)[nH]1", "GI50": "> 100 µM (inactive)"}
{"molecule": "c1cc2cc(c1)CN1CCNCCN(CCNCC1)Cc1cccc(c1)CN1CCNCCN(CCNCC1)C2", "GI50": "> 100 µM (inactive)"}
{"molecule": "C[C@H](OC(=O)/C=C/c1ccc(O)c(O)c1)[C@H](C)OC(=O)/C=C/c1ccc(O)c(O)c1", "GI50": "9.48 µM (inactive)"}
{"molecule": "COc1cc2oc(-c3ccc4c(c3)OCO4)c(OC)c(=O)c2c(O)c1OC", "GI50": "> 50 µM (inactive)"}
{"molecule": "C/C(CCn1[nH]c(=O)ccc1=O)=N\\NC(=O)C(N)=O", "GI50": "> 100 µM (inactive)"}

Task: Return reported GI50; argument: CCOC(=O)CCC1(C(=O)OCC)CCCCC1=O (centres undefined)
Result: > 100 µM (inactive)

Task: Return reported GI50; argument: CC1(Br)S(=O)(=O)OCCOS1(=O)=O
Result: > 100 µM (inactive)

Task: Return reported GI50; argument: O=C(OCc1ccccc1)c1ccc(NCc2cc(O)ccc2O)cc1
Result: 0.902 µM (active)

Task: Return reported GI50; argument: Cc1nn(C(=O)c2ccc(Cl)cc2)c2c1C(c1ccccc1O)SC(=N)N2 (centres undefined)
Result: > 10 µM (inactive)

Task: Return reported GI50; argument: O=C1OC(OC/C(Br)=C(/Br)COC2OC(=O)C(Cl)=C2Cl)C(Cl)=C1Cl (centres undefined)
Result: 21.8 µM (inactive)

Task: Return reported GI50; argument: CCOC(=O)c1[nH]c(COC(C)=O)c(CCCOC(C)=O)c1CCCOC(C)=O
Result: > 100 µM (inactive)

Task: Return reported GI50; argument: CSC1=Nc2ccccc2-c2nc(-c3ccccc3)cc(-c3ccccc3)c2C1
Result: 19.2 µM (inactive)

Task: Return reported GI50; argument: CC(=O)N(C)SCC(NC(=O)C(Cc1ccccc1)NC(=O)OCC1c2ccccc2-c2ccccc21)C(=O)NC(Cc1ccccc1)C(=O)NC(Cc1cn(C=O)c2ccccc12)C(=O)NC(CCCCNC(=O)OCC1c2ccccc2-c2ccccc21)C(=O)NC(C(=O)NC(CSN(C)C(C)=O)C(=O)NC(C(N)=O)C(C)O)C(C)O (centres undefined) (Fmoc-F[X31]FW(For)K(Fmoc)T[X31]T-NH2; configuration not given here)
Result: > 100 µM (inactive)

----------
Recorded GI50 values for a group of compounds are listed next.
# Test system: SNB-78
# assayComment: NCI tumour cell line growth inhibition, 48 h
The source made the active and inactive calls. Cut-off read from the data, not from the text of the source: active = GI50 up to about 1.1 µM and inactive = higher.

Recorded results for 3 compounds are shown here.
{"compound": "COc1cc(C(C)c2cc3c(cc2OCCOCCOc2cc4c(cc2C(C)c2cc(OC)c(OC)c(OC)c2)OCO4)OCO3)cc(OC)c1OC (stereo not given)", "measurement": "> 10 µM (inactive)"}
{"compound": "CC1CC(c2ccccc2)=Nc2ccccc2S1 (stereo not given)", "measurement": "> 100 µM (inactive)"}
{"compound": "NS(=O)(=O)c1ccc(NC2=CC(=O)C(=O)c3ccccc32)cc1", "measurement": "> 100 µM (inactive)"}

Task: Return reported GI50; argument: Cc1c(OC(C)C(=O)O)ccc2c(-c3ccccc3)cc(=O)oc12 (stereo not given)
Result: > 100 µM (inactive)

Task: Return reported GI50; argument: CCCCCCCCCCC(=O)CCCCCCC(=O)O
Result: 69.8 µM (inactive)

Task: Return reported GI50; argument: COc1ccc(NC(=O)C(=O)NNC(=O)c2sc(NNC(C)=O)nc2C)c([N+](=O)[O-])c1
Result: > 100 µM (inactive)

Task: Return reported GI50; argument: O=C1C(CN2CCCCC2)CCCC1CN1CCCCC1 (stereo not given)
Result: 21.4 µM (inactive)

----------
# Test system: IGROV-1
# assayComment: NCI tumour cell line growth inhibition, 48 h
Calls of active or inactive are those of the source. No stated cut-off is given here; in the data, active = GI50 up to about 1.1 µM and inactive = higher. *1 amine or outer side, *2 acyl side, *3 side chain or, on linkers, in order; H or OH if unused. Where a SMILES comes first, the peptide text is derived from it. [ ]: non-standard residue; d: D form. The star is where a group is joined. X31 = CC(=O)N(C)SCC(N[*:1])C(=O)[*:2]; Fmoc = O=C(OCC1c2ccccc2-c2ccccc21)*; For = O=C*
readoutName: GI50

Recorded results for 2 compounds are shown here.
{"compound": "CCOC(=O)CCC(NC(=O)OCc1ccccc1)C(=O)NNC(=O)OC(C)(C)C (configuration not stated)", "systemUnderTest": "IGROV-1", "GI50": "> 100 µM (inactive)"}
{"compound": "N=c1n(C(=O)N2CCCC2)c2cc(Cl)ccc2n1C1=NCCN1", "systemUnderTest": "IGROV-1", "GI50": "73.3 µM (inactive)"}

Task: Return reported GI50; argument: COc1cc([C@@H]2c3cc4c(cc3[C@@H](c3c(O)cc(O)c5c3O[C@H](c3ccc(O)c(O)c3)[C@@H](O)C5)[C@H]3COC(=O)[C@H]23)OCO4)cc(OC)c1OC
Result: 44.6 µM (inactive)

Task: Return reported GI50; argument: CN1CC2=C(N=C(S)NC2c2ccccc2Cl)/C(=C/c2ccccc2Cl)C1 (configuration not stated)
Result: 53.7 µM (inactive)

Task: Return reported GI50; argument: Nc1nc2c(ncn2CC(CO)CC(c2ccccc2)P(=O)(O)O)c(=O)[nH]1 (configuration not stated)
Result: > 100 µM (inactive)

Task: Return reported GI50; argument: COc1ccc(/C=N\N2CC(=O)N3C4C=CC(CC4)N3C2=O)cc1 (configuration not stated)
Result: > 100 µM (inactive)

Task: Return reported GI50; argument: CCC1CNC(=O)CC1CC(=O)OC (configuration not stated)
Result: > 100 µM (inactive)

Task: Return reported GI50; argument: CC1(C)CCCCCCC2OC2CCCCCC(C)(C)C1=O (configuration not stated)
Result: 47.8 µM (inactive)

Task: Return reported GI50; argument: CC(=O)N(C)SCC(NC(=O)C(Cc1ccccc1)NC(=O)OCC1c2ccccc2-c2ccccc21)C(=O)NC(Cc1ccccc1)C(=O)NC(Cc1cn(C=O)c2ccccc12)C(=O)NC(CCCCNC(=O)OCC1c2ccccc2-c2ccccc21)C(=O)NC(C(=O)NC(CSN(C)C(C)=O)C(=O)NC(C(N)=O)C(C)O)C(C)O (configuration not stated) (Fmoc-F[X31]FW(For)K(Fmoc)T[X31]T-NH2; configuration not given here)
Result: 66.4 µM (inactive)

Task: Return reported GI50; argument: COc1cc(C)c(CC/C(C)=C/Cc2cc(O)ccc2O)c(C)c1C [PANICEIN A HYDROQUINONE]
Result: > 25 µM (inactive)

Task: Return reported GI50; argument: OC(C1CCCC1=N/N=C1/CCCC1C(O)(C(F)(F)Cl)C(F)(F)Cl)(C(F)(F)Cl)C(F)(F)Cl (configuration not stated)
Result: > 10 µM (inactive)

Task: Return reported GI50; argument: CCn1c(O)c(C(=O)NC(C)c2ccc([N+](=O)[O-])cc2)c(=O)n(CC)c1=S (configuration not stated)
Result: 2.75 µM (inactive)

Task: Return reported GI50; argument: O=C(O)CN1CCN2CCOCCN(CC1)CCN(CC(=O)O)CC2
Result: > 100 µM (inactive)

Task: Return reported GI50; argument: CCOC(=O)c1[nH]c(COC(C)=O)c(CCCOC(C)=O)c1CCCOC(C)=O
Result: > 100 µM (inactive)

Task: Return reported GI50; argument: N#Cc1nc(C(O)c2ccccc2)oc1N (configuration not stated)
Result: > 100 µM (inactive)

Task: Return reported GI50; argument: O=C1/C(=C/C=C/c2ccccc2)CCC1CNc1ccccc1 (configuration not stated)
Result: 23.4 µM (inactive)

Task: Return reported GI50; argument: O=C(O)CNC(=O)C1NC(C(F)(F)F)(C(F)(F)F)OC1(C(F)(F)F)C(F)(F)F (configuration not stated)
Result: > 100 µM (inactive)
